Molecular target: T1, L-selectin (LS-Rg) (Homo sapiens, UniProt P14151 P14151:39-332)
T1 chain: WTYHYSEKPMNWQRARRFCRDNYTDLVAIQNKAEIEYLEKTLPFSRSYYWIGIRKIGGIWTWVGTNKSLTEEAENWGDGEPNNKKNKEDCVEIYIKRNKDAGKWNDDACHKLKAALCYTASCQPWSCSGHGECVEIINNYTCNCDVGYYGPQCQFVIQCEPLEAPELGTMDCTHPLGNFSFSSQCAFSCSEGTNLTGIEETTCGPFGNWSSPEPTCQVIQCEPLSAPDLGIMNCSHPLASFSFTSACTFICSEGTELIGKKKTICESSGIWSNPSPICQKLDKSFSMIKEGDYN
Assay: filter; 4 C, HSMC (Ca/Mg); biphasic, fraction 0.68, low affinity Kd 60 nM; 1.0 nM at room temp
Conditions: tags: human IgG2 Fc fusion (provided by A. Varki); label: 32P; pseudoknot

# binder, unit of measurement, Kd
measured = [
    ("F14.20 (ssRNA, 2'-NH2 all C and U) RNA: GGGAGGACGAUGCGGUAACAACAAUCAAGGCGGGUUCACCGCCCCAGUAUGAGUGCAGACGACUCGCCCGA", "nM", 0.058),
]
